This listing pairs compounds with measured z-score.
system_tested: NADPH oxidase 4 (Homo sapiens) (UniProt Q9NPH5)
Sequence (Q9NPH5 whole entry, looked up): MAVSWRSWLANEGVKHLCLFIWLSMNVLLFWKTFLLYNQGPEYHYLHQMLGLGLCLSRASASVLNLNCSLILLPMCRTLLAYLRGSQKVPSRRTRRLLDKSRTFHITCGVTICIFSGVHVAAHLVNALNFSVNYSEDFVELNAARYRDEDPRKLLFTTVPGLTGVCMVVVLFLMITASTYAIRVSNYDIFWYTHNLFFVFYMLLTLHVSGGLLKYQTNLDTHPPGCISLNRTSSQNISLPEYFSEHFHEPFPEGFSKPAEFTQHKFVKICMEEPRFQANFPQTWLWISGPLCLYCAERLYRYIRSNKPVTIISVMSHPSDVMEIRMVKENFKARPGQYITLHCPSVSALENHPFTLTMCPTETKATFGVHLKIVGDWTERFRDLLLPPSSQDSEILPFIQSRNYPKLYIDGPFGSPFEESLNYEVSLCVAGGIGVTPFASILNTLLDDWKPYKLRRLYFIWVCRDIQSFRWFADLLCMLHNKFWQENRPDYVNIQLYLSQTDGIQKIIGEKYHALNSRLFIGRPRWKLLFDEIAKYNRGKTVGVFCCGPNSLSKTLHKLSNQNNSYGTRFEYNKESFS
method_description: NOX4-dependent H2O2 signal modulators, primary screen, NOX inhibitor project, cell-based, HEK293-NOX4, tetracycline-induced, Amplex Red fluorescence (AID 1160)
protocol_conditions: 45 min, higher = more signal, called active from +8 up or from −8 down
Activity calls are given as the source filed them.
property_measured: z-score

compound | obs_value
CCC[C@@H]1C[C@@]1(CCC)[C@@H](NC(=O)OCc1ccccc1)c1ccc(-c2ccccc2)cc1 | -1.45 (inactive)
COc1cc2c(cc1OC)CN(C(=O)[C@@H]1[C@H]3C(=O)O[C@H](c4ccccc4)[C@H](c4ccccc4)N3[C@H](c3ccc(OCCO)cc3)[C@@]13C(=O)Nc1ccccc13)CC2 | 0.837 (inactive)
O[C@@H](Cc1ccccc1)[C@@H](/C=C/C1CC1)N(CC#Cc1ccccc1)Cc1cccc(Cl)c1 | 0.727 (inactive)
COCCOC(=O)N1C(=O)[C@@]2(c3cc(C#CCCO)ccc31)[C@H](C(=O)Nc1nc3ccccc3s1)[C@H]1C(=O)O[C@H](c3ccccc3)[C@H](c3ccccc3)N1[C@@H]2c1ccccc1OCCO | -0.9 (inactive)
CC(C)N1CC=CC23O[C@@H]4C=CCOC(=O)[C@@H]4[C@H]2C(=O)N(CCCO)[C@@H]3C1=O (some centres not stated) | -1.52 (inactive)
CO[C@H]1O[C@H](CO)[C@@H](OC(=O)Nc2ccccc2-c2ccccc2)[C@H](OC(=O)Nc2ccc3c(c2)OCO3)[C@H]1OC(=O)Nc1ccc2c(c1)OCO2 | -1.18 (inactive)
COC(=O)c1nc2oc1CC[C@@H](CO)NC(=O)N(C)Cc1cnnn1C[C@H](Cc1ccccc1)NC2=O | 1.35 (inactive)
